Target: T1, RSV prefusion F (preF), subtype B (respiratory syncytial virus subtype B)
T1 construct: also called Prefusion subtype B
Experiment: BLI, IgG
pKd: −log10 of the molar value.

binder	pKd
ADI-14381 (antibody, V domains shown, full-length IgG; also called Ab 49) VH: EVQLVESGGGLVQPGGSLRLSCAASGFTFSSYSMNWVRQAPGKGLEWVSYIGSSSSSVYYGDSAKGRFTISRDNAKNSLYLQMNSLRDEDTALYYCARVGWLQYCRGGSCYASFGMDVWGQGTTVTVSS VL: DIQMTQSPSSLSASVGDRVTITCRASQGIRNDLGWYQQKPGIAPKLLIYAASSLQSGVPSRFSGSGSGTDFTLTISSLQPEDFATYYCLQDYDSPYTFGQGTKLEIK	7.44
ADI-19475 (antibody, V domains shown, full-length IgG) VH: EVQLLESGAEVKKPGASVKVTCKASGYTFTHFGINWVRQAPGQGLEWLGWISAYNGNTNYVQKIQGRVTMTTDTSTNTAYMELRSLRSDDTAVYYCARGPPVEAAGTFDYWGQGTLVTVSS VL: DIVLTQSPLSLPVTLGQPASISCRSSQSLVYSDGNTYLTWFQQRPGQSPRRLIYKVSNRDSGVPDRFSGSGSGTDFTLQISRVEAEDVGVYYCMQGTHWPFTFGPGTKVEIK	8.37
ADI-14389 (antibody, V domains shown, full-length IgG; also called Ab 56) VH: EVQLVESGGGLVKPGGSLRLSCAASGFTFINAWMAWVRQAPGKGPEWVGRIKSRADGGTTDYAAPVKGRFTISRDDSKNRLFLQMDSLKTDDTAVYFCTTGVRALRFYNGMDVWGQGTTVTVSS VL: ETTLTQSPSSLSASIGDRVTITCRAGQSISSFLNWYQQKPGKAPKLLIYAASTLQSGVPSRFSGSKSGTDFTLTISSLQPEDFATYYCQQSYHTFTFGPGTKVEIK	7.09
